In this section we review reported koff values for a set of binders.
SYSTEM_NAME: T1, CD70 (UniProt P32970 39-193, limits assumed)
T1 construct: also called CD70 (100 nM)
T1 sequence (looked up): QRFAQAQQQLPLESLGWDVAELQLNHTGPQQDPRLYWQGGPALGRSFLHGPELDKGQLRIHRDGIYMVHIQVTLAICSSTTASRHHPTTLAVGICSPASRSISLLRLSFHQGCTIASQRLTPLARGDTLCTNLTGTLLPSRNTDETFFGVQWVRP
ASSAY_REMARKS: Octet (BLI); hybridoma mAb, CD70 at 100 nM
PROPERTY_NAME: koff (s⁻¹)

INSERT INTO results (binder, property_name, recorded_value) VALUES
  ('4G7 (4G7E8) (antibody, V domains shown, IgG in hybridoma supernatant; The variable domains exist only inside scFv entries 1213/1214) VH: QVQLVESGGGVVQPGRSLRLSCAASGFTFSSYGLHWVRQAPGKGLDWVAVIWYDGSNKYYVDSVKGRFTISRDNSMNTLFLQMNSLRAEDTAVYYCARDEAAAAGAFDIWGQGTMVTVSS VL: DIQLTQSPSFLSASVGDRVTITCRASQGISSYLAWYQQKPGKAPKLLIYAASTLQSGVPSRFSGSGSGTEFTLTISSLQPEDFATYYCQQLNYYSITFGQGTRLEIK', 'koff', 0.000167),
  ('15F8 (15F8D8) (antibody, V domains shown, IgG in hybridoma supernatant; also called 15F8D9) VH: EVQLVESGGGVVRPGGSLRLSCAASGFTFDDYGVSWVRQAPGRGLEWVSGINWNGGSTAYADSVKGRFTISRDSAKNSLYLQMDSLRAEDTALYYCAREEGSYYVWYFDIWGRGTLVTVSS VL: DIQMTQSPSSLSASVGDRVTITCRPSQSISNYLNWYQQKPGKAPKVLIYASFILQSGVPSRFGGSGSGTDFTLTISSLQPEDFATYYCQQSYSNPFTFGPGTKVDIK', 'koff', '3.36e-07');

Attribution: patent US20240252641A1
